protocol-notes: gradient 5% acetonitrile 3 min, to 50% in 2 min, to 85% in 15 min, held 3 min, 100 µL/min
recorded-conditions: column: Zorbax Extend-C18 2.1 x 50 mm; eluents: water / acetonitrile, 0.1% formic acid
Listing: RP-LC retention time of selected compounds

[
  {
    "compound": "O=C(NCc1ccc(F)cc1)c1cc(N2CCCC2)n2nccc2n1",
    "RP-LC retention time (s)": 957
  },
  {
    "compound": "COc1cc(OC)cc(N2C(=O)C3N=NN(Cc4nc(-c5ccc(OC)cc5OC)no4)C3C2=O)c1 (stereo not given)",
    "RP-LC retention time (s)": 865
  },
  {
    "compound": "O=C(COc1ccc(-c2cnc3ccccc3n2)cc1)NCC1CCCO1 (stereo not given)",
    "RP-LC retention time (s)": 726
  },
  {
    "compound": "O=S(=O)(Nc1ccc(Cl)cc1)c1ccc2nncn2c1",
    "RP-LC retention time (s)": 712
  },
  {
    "compound": "CCc1cc(C2CCCN2C(=O)Nc2ccc(Cl)cc2)on1 (stereo not given)",
    "RP-LC retention time (s)": 890
  },
  {
    "compound": "CC(C)NC(=O)N(CC(=O)N1CCc2sccc2C1COc1cccc(F)c1)CC1CCCO1 (stereo not given)",
    "RP-LC retention time (s)": 950
  },
  {
    "compound": "CCSc1ccccc1C(=O)N1CCN(CCn2cccn2)CC1",
    "RP-LC retention time (s)": 568
  },
  {
    "compound": "O=c1ccc(S(=O)(=O)N2CCCCCC2)cn1Cc1cccc(F)c1",
    "RP-LC retention time (s)": 944
  },
  {
    "compound": "O=C(Cn1nc2c(Oc3ccccc3)nccn2c1=O)Nc1ccc(Br)cc1F",
    "RP-LC retention time (s)": 898
  },
  {
    "compound": "C[C@H](N)C(=O)N[C@@H](C)C(=O)N[C@@H](Cc1ccccc1)C(=O)CCl",
    "RP-LC retention time (s)": 638
  }
]
